Data provenance is ChEMBL document CHEMBL5236554.

- Protocol details: Metabolic stability in mouse plasma assessed as half life measured upto 240 mins by LC-MS/MS analysis
- Format: ADME, cell-free
Measured attribute: half-life

Task item: Can you share its half-life? I mean this molecule: N[C@@H](Cc1c[nH]cn1)C(=O)NCc1cccc2ccccc12
Reply: > 16.7 h
